Just for reference, patent US6787552B2 is where these values come from.

tgt: PPARα (Homo sapiens, UniProt Q07869)
Construct: Receptor expression plasmid (GAL4-hPPARα, LBD GAL4-hPPARγ LBD, GAL4-hPPARδ LBD); expressed in transfected cells; host or cells: CV-1 cells
Sequence (Q07869 239-466 limits assumed): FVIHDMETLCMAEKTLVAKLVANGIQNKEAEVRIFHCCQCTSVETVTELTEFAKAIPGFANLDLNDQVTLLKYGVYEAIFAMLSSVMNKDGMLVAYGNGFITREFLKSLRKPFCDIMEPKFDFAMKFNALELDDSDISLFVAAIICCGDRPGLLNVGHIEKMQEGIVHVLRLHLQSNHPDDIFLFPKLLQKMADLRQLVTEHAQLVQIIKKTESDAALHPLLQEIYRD
run_description: PPARα transactivation activity (GAL4-hPPARα LBD / UASx4-TK-LUC reporter in CV-1 cells)
Assay type: cell-based
setup_conditions: compound at 10^−5 M; CV-1 cells; Table 25
Would you please tag the item T when its PPARα transactivation activity: a relative value (control = 100%) is 40% or above, and F when it is below?

1. CC(C)c1oc(-c2ccccc2Cl)nc1CC=Cc1ccc(OC(C)(C)C(=O)O)cc1 = T
2. CC(C)c1oc(-c2ccccc2Cl)nc1CCC(O)c1ccc(OC(C)(C)C(=O)O)cc1 (stereo not drawn) = F
3. CC(C)c1oc(-c2ccccc2Cl)nc1CCCc1ccc(OC(C)(C)C(=O)O)cc1 = T
4. CCCc1oc(-c2ccc(Cl)cc2)nc1CCC(=O)c1ccc(OC(C)(C)C(=O)O)cc1 = T
5. CC(C)c1oc(-c2ccccc2Cl)nc1CCC(=NO)c1ccc(OC(C)(C)C(=O)O)cc1 = F
6. CC(C)c1oc(-c2ccccc2Cl)nc1CCC(=O)c1ccc(OC(C)(C)C(=O)O)cc1 = F
